Experiment: Induction of neurite outgrowth in rat hippocampal neurons assessed as neurite total length at 31.25 ng/ml after 48 hrs relative to control
Assay type: functional, Hippocampal neurone
Record form. Attribute: Activity. Fill in for each entry.
Give bare numbers, in %.

- CCC(C)CC1=N[C@@H](CCCCN2C[C@@H](CC(C)C)N(CCCC3CCCCC3)C2=S)CN1 (stereo not given in full): 178.9
- CCC(C)C1=N[C@@H](CCCCN2C[C@@H](CC(C)C)N(CC3CCC(C)CC3)C2=S)CN1 (stereo not given in full): 216.3
- CC(C)CCCCN1C(=S)N(CCCC[C@H]2CNC(CCCCc3ccccc3)=N2)C[C@H]1CC(C)C: 145.3

Give measured Activity for every item shown.
1. CC(C)C[C@@H]1CN(CCCC[C@H]2CNC(CCCCc3ccccc3)=N2)C(=S)N1CCCC1CCCCC1
2. CC1CCC(CCN2C(=S)N(CCCC[C@H]3CNC(CCCCc4ccccc4)=N3)C[C@H]2C)CC1 (stereo not given in full)

Key:
135.5
101.9
